experimental.protocol: PK of compound of Formula (Ia) after single subcutaneous dose of solution formulations in beagle dogs
Format: in vivo
assay.context: male, beagle, dog, plasma, sc, 12 mg/kg, male beagle dogs, single SC 12 mg/kg, 500 mg/mL solution X (5.00% ethanol, 1.91% poloxamer 188), mean ± SD, n = 3; read-out: AUC0-672 h

molecule.smiles | unit.abbrev | AUC(0-t)
CC(C)(C#Cc1ccc(-c2ccc(Cl)c3c(NS(C)(=O)=O)nn(CC(F)(F)F)c23)c([C@H](Cc2cc(F)cc(F)c2)NC(=O)Cn2nc(C(F)(F)F)c3c2C(F)(F)[C@@H]2C[C@H]32)n1)S(C)(=O)=O | µM·h | 46.1

---

experimental.protocol: PK of compound of Formula (Ia) after single subcutaneous dose of solution formulations in beagle dogs
Format: in vivo
assay.context: male, beagle, dog, plasma, sc, 12 mg/kg, beagle dogs, SC 12 mg/kg, 400 mg/mL solution Y (water, PEG 300), 672 h, Mean n = 3
Procedure: Formulations containing the compound of Formula (Ia), or a pharmaceutically acceptable salt thereof, were prepared as solutions and optionally administered subcutaneously or intramuscularly to rats, rabbits, and/or dogs. A solution of about 400 mg/mL of the compound of Formula (Ia) having 17.00 w/w % water, 36.40 w/w % PEG 300, 35.20 w/w % of a sodium salt of a compound of Formula (Ia), 5.00 w/w % ethanol, and 6.40 w/w % poloxamer 188 was prepared. […]

compound | unit.abbrev | concentration at 672 h
CC(C)(C#Cc1ccc(-c2ccc(Cl)c3c(NS(C)(=O)=O)nn(CC(F)(F)F)c23)c([C@H](Cc2cc(F)cc(F)c2)NC(=O)Cn2nc(C(F)(F)F)c3c2C(F)(F)[C@@H]2C[C@H]32)n1)S(C)(=O)=O [compound of Formula (Ia)] | nM | 205

---

experimental.protocol: PK of compound of Formula (Ia) after single subcutaneous dose of solution formulations in Wistar Han rats
Format: in vivo
assay.context: male, Wistar Han, rat, plasma, sc, 50 mg/kg, Wistar Han rats, SC 50 mg/kg, 400 mg/mL solution AA (6.25% poloxamer 188), 336 h, Mean n = 4

molecule.smiles | concentration at 336 h, nM
CC(C)(C#Cc1ccc(-c2ccc(Cl)c3c(NS(C)(=O)=O)nn(CC(F)(F)F)c23)c([C@H](Cc2cc(F)cc(F)c2)NC(=O)Cn2nc(C(F)(F)F)c3c2C(F)(F)[C@@H]2C[C@H]32)n1)S(C)(=O)=O | 130

---

experimental.protocol: PK of compound of Formula (Ia) after single subcutaneous dose of solution formulations in beagle dogs
Type: in vivo
assay.context: male, beagle, dog, plasma, sc, 12 mg/kg, 8.00 h; mean, n = 3 dogs; SC 12 mg/kg; solution U, 500 mg/mL

molecule | concentration at 8 h [nM]
CC(C)(C#Cc1ccc(-c2ccc(Cl)c3c(NS(C)(=O)=O)nn(CC(F)(F)F)c23)c([C@H](Cc2cc(F)cc(F)c2)NC(=O)Cn2nc(C(F)(F)F)c3c2C(F)(F)[C@@H]2C[C@H]32)n1)S(C)(=O)=O [compound of Formula (Ia)] | 61.2

---

experimental.protocol: PK of compound of Formula (Ia) after single subcutaneous dose of solution formulations in Wistar Han rats
Assay type: in vivo
assay.context: male, Wistar Han, rat, plasma, sc, 50 mg/kg, 24.0 h; individual rats; SC 50 mg/kg; solution V, 300 mg/mL
Procedure: Formulations containing the compound of Formula (Ia), or a pharmaceutically acceptable salt thereof, were prepared as solutions and optionally administered subcutaneously or intramuscularly to rats, rabbits, and/or dogs. A solution of about 400 mg/mL of the compound of Formula (Ia) having 19.14 w/w % water, 40.66 w/w % PEG 300, 35.20 w/w % of a sodium salt of a compound of Formula (Ia), and 5.00% ethanol was prepared. […]

compound | concentration at 24 h, nM
CC(C)(C#Cc1ccc(-c2ccc(Cl)c3c(NS(C)(=O)=O)nn(CC(F)(F)F)c23)c([C@H](Cc2cc(F)cc(F)c2)NC(=O)Cn2nc(C(F)(F)F)c3c2C(F)(F)[C@@H]2C[C@H]32)n1)S(C)(=O)=O [compound of Formula (Ia)] | 222

---

experimental.protocol: PK of compound of Formula (Ia) after single subcutaneous dose of solution formulations in Wistar Han rats
Type: in vivo
assay.context: male, Wistar Han, rat, plasma, sc, 50 mg/kg, 168 h; individual rats; SC 50 mg/kg; solution V, 300 mg/mL
Method: Formulations containing the compound of Formula (Ia), or a pharmaceutically acceptable salt thereof, were prepared as solutions and optionally administered subcutaneously or intramuscularly to rats, rabbits, and/or dogs. A solution of about 400 mg/mL of the compound of Formula (Ia) having 19.14 w/w % water, 40.66 w/w % PEG 300, 35.20 w/w % of a sodium salt of a compound of Formula (Ia), and 5.00% ethanol was prepared. […]
readout.kind: concentration at 168 h

compound | readout.kind | result
CC(C)(C#Cc1ccc(-c2ccc(Cl)c3c(NS(C)(=O)=O)nn(CC(F)(F)F)c23)c([C@H](Cc2cc(F)cc(F)c2)NC(=O)Cn2nc(C(F)(F)F)c3c2C(F)(F)[C@@H]2C[C@H]32)n1)S(C)(=O)=O [compound of Formula (Ia)] | concentration at 168 h | 100 nM

---

experimental.protocol: PK of compound of Formula (Ia) after single intramuscular dose of solution formulations in Wistar Han rats
Assay type: in vivo
assay.context: male, Wistar Han, rat, plasma, intramuscular, 100 mg/kg, 1.00 h; individual rats; IM 100 mg/kg; solution M, 500 mg/mL; read-out: Plasma concentration
readout.kind: concentration at 1 h (nM)

molecule.smiles | readout.kind | unit.abbrev | result.number
CC(C)(C#Cc1ccc(-c2ccc(Cl)c3c(NS(C)(=O)=O)nn(CC(F)(F)F)c23)c([C@H](Cc2cc(F)cc(F)c2)NC(=O)Cn2nc(C(F)(F)F)c3c2C(F)(F)[C@@H]2C[C@H]32)n1)S(C)(=O)=O | concentration at 1 h | nM | 177

---

experimental.protocol: PK of compound of Formula (Ia) after single subcutaneous dose of solution formulations in Wistar Han rats
Type: in vivo
assay.context: male, Wistar Han, rat, plasma, sc, 50 mg/kg, 2688 h; individual rats; SC 50 mg/kg; solution S, 500 mg/mL

molecule.smiles | concentration at 2688 h
CC(C)(C#Cc1ccc(-c2ccc(Cl)c3c(NS(C)(=O)=O)nn(CC(F)(F)F)c23)c([C@H](Cc2cc(F)cc(F)c2)NC(=O)Cn2nc(C(F)(F)F)c3c2C(F)(F)[C@@H]2C[C@H]32)n1)S(C)(=O)=O | 171 nM

---

experimental.protocol: PK of compound of Formula (Ia) after single subcutaneous dose of solution formulations in beagle dogs
Assay type: in vivo
assay.context: male, beagle, dog, plasma, sc, 12 mg/kg, beagle dogs, SC 12 mg/kg, 400 mg/mL solution AA (6.25% poloxamer 188), 96.0 h, animals #1-#3

molecule.smiles | concentration at 96 h (nM)
CC(C)(C#Cc1ccc(-c2ccc(Cl)c3c(NS(C)(=O)=O)nn(CC(F)(F)F)c23)c([C@H](Cc2cc(F)cc(F)c2)NC(=O)Cn2nc(C(F)(F)F)c3c2C(F)(F)[C@@H]2C[C@H]32)n1)S(C)(=O)=O | 140

---

experimental.protocol: PK of compound of Formula (Ia) after single subcutaneous dose of solution formulations in beagle dogs
Format: in vivo
assay.context: male, beagle, dog, plasma, sc, 12 mg/kg, male beagle dogs, single SC 12 mg/kg, 400 mg/mL solution Z (3.13% poloxamer 188), mean ± SD, n = 3; read-out: AUC0-3024 h

compound | AUC(0-t), µM·h
CC(C)(C#Cc1ccc(-c2ccc(Cl)c3c(NS(C)(=O)=O)nn(CC(F)(F)F)c23)c([C@H](Cc2cc(F)cc(F)c2)NC(=O)Cn2nc(C(F)(F)F)c3c2C(F)(F)[C@@H]2C[C@H]32)n1)S(C)(=O)=O [compound of Formula (Ia)] | 175

---

experimental.protocol: PK of compound of Formula (Ia) after single subcutaneous dose of solution formulations in Wistar Han rats
Format: in vivo
assay.context: male, Wistar Han, rat, plasma, sc, 50 mg/kg, mean ± SD, n = 5 rats; SC 50 mg/kg; solution U, 500 mg/mL; read-out: AUC0-336 h

molecule.smiles | AUC(0-t) (µM·h)
CC(C)(C#Cc1ccc(-c2ccc(Cl)c3c(NS(C)(=O)=O)nn(CC(F)(F)F)c23)c([C@H](Cc2cc(F)cc(F)c2)NC(=O)Cn2nc(C(F)(F)F)c3c2C(F)(F)[C@@H]2C[C@H]32)n1)S(C)(=O)=O | 63.2
